# Test Name: soluble on expression in E. coli; label from the status in PepcDB or PDB records
Reported Metric: soluble on expression in E. coli

These solved cases illustrate the format of a correct answer.
Sequence String: GTIVITGTITDQTCTIEDPSPGYIKVVHLPTISKSALKNAGDVAGRTRFDIKLKDCPTTVNTLKLYFEPGPTTDYGTKDLKAYKQAWYVDAATLLKSPPSVTEAKGVQIRLMNLNGKQIPMGETEPNQHAAAFSGTMQAGQAKKSFTLHYLAGYVKKASGEVEATMLTTYVGFSVVYP
soluble on expression in E. coli: not soluble
--
Sequence String: MRVDRRTFLKATGAALGALALSGLPARAQGLEGEDLEHLEQALKEVFGKGFKDLTPSDAVKLNMPAIAESGANVPAEVEVALPKEQVKAIHLFADKNPTPHILAFMPMKAEPYYATRVRLAETTAIRAVVETQDGKLLLASASTRVTVGGCG
soluble on expression in E. coli: soluble
--
Sequence String: MGSDKIHHHHHHGADFVKGDRTFAADAELGATVTTGNTETTSLKGRLDMKHELGNWENQYLLEALYKEDSGEETGKRYYGLVQGNYKFSDVNYMFANANHEIDPFTGFDSKSTISAGYGHKFVDTEKTTFAVEVGPGFQYKRLDDESAAEAGYDTEESWVAHGVMNFETEITDNSKFKQLFVADYGESLEGRSETSITANIVGALAMKFAVIVRYNSEPLDNKKSTDTETNMTLLYSF
soluble on expression in E. coli: not soluble
--
Sequence String: LADTSPMDKKGRKAEDALVVNVRANLYWWEFEYPDYGIITSQELIVPTDQRVYFNLKASDVKHSFWIPSVGGKLDTNTDNENKFFLTFDSKRSKEAGDMFFGKCAELCGPSHALMDFKVKTMSAKEFQGWTKEMKNYKSTAESDLAKQGEELFKEKNCLSCHAVEPNDKRAEAARTAPNLATFGERTKVAGVKEANKENVKAWLKDPDSIKPGNKMTGTYPKLSDSETNALYEYLKGLKAE
soluble on expression in E. coli: not soluble
--
Sequence String: MSLKFHSPSCFLSAGEPSGDTLGSDLLRNIKELNPNIHCFGVGGPLMRKEGLEPLIRMEEFQVSGFLEVFCAVFSLYKKYRKLYKAILKENPETVFCIDFPDFHFFLIRKLRKCGYRGKIIHYVCPSIWAWRPNRKKILEKHLDTLLLILPFEKEIFKDSPLKTIYLGHPLVKTIANFQDCNAWKQQLEISDQPSVALFPGSRPGDIFRNLQVQARAFRSSSLAKSHQLLVSSCNPKYDKKILELLDKEGCHNNKIVPSKFRYQLMRDCDCALAKCGTIVLEAALNQTPTIVTCLLRPFDTFLAKYIFKIFIPAYSLPNIITGSVIFPEFIGGKHDFSPEEVAAAIDILANPIGKEKQKYACQQLLKTMTENVITPKECLQAIYAQKNREGHHHHHH
soluble on expression in E. coli: not soluble

Kindly review the next sequence as well.
Lookup: Look up soluble on expression in E. coli of `MWDVIVVGGGPSGLSAALFLARAGLKVLVLDGGRSKVKGVSRVPNYPGLLDEPSGEELLRRLEAHARRYGAEVRPGVVKGVRDMGGVFEVETEEGVEKAERLLLCTHKDPTLPSLLGLTRRGAYIDTDEGGRTSYPRVYAAGVARGKVPGHAIISAGDGAYVAVHLVSDLRGEPYKDHAL` and report it.
Found: soluble
